FYI, the data here is from patent US12371454B2.

biological target: Kras and SOS1 (biotin-tagged human Kras loaded with GDP, His-tagged human SOS1) (Homo sapiens, UniProt P01116, G12D); construct: made in house; host or cells: E. coli (stated for Kras only); assay: Protein-protein interaction inhibition between Kras and SOS1 (KrasGl2D-SOS PPI) using AlphaScreen; format: binding; details: AlphaScreen; biotin-tagged human Kras loaded with GDP, His-tagged human SOS1; read-out: KRAS G12D-SOS PPI IC50
Sequence (P01116 1-188 isoform P01116-2 G12D): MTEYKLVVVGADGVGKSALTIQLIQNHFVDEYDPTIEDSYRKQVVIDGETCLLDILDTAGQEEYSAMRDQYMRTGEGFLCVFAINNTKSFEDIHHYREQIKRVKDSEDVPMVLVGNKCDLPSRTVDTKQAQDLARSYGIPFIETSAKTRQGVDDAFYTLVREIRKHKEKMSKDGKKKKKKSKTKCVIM
pIC50: −log10 of the molar value. Starred links: 1 amine or outer side, 2 acyl side, 3 side chain; linkers in the order of their positions; H or OH if unused. Positions of bridges follow the written chain, without caps; N, C: chain ends. Non-standard residues stand in square brackets, D forms with d. Residues, ends and D or L forms follow the SMILES beside them. *: point of attachment. hPhe(3-Cl-4-CF3) = N[C@@H](CCc1ccc(C(F)(F)F)c(Cl)c1)C(=O)O; NMePhe(4-Cl) = CN[C@@H](Cc1ccc(Cl)cc1)C(=O)O; NMePhe(2-Me) = CN[C@@H](Cc1ccccc1C)C(=O)O; Phe(3-I) = N[C@@H](Cc1cccc(I)c1)C(=O)O; NMeGly(cBu) = CN[C@H](C(=O)O)C1CCC1; NMeCha = CN[C@@H](CC1CCCCC1)C(=O)O; X7 = O=C(CN(c1ccsc1)[*:1])[*:2]; NMeD = CN[C@@H](CC(=O)O)C(=O)O; NMeL = CN[C@@H](CC(C)C)C(=O)O; NMeA = CN[C@@H](C)C(=O)O; Nle = CCCC[C@H](N)C(=O)O; Piperidide = C1CCN(*)CC1; Ac5c = NC1(C(=O)O)CCCC1; Sar = CNCC(=O)O
Would you mind labelling by pIC50? At or over 8 is MET, under is NOT MET.

CC[C@H](C)[C@@H]1NC(=O)[C@H](C)N(C)C(=O)C[C@@H](C(=O)N2CCCCC2)N(C)C(=O)[C@H](C2CCC2)N(C)C(=O)C2(CCCC2)NC(=O)CN(c2ccsc2)C(=O)[C@H](CCc2ccc(C(F)(F)F)c(Cl)c2)NC(=O)CN(C)C(=O)[C@H](CC2CCCCC2)N(C)C(=O)CN(C)C(=O)CN(C)C1=O [Compound 2149] ([NMeA]I[Sar][Sar][NMeCha][Sar][hPhe(3-Cl-4-CF3)][X7][Ac5c][NMeGly(cBu)][NMeD]-Piperidide; lactam N-11): MET

Query: Please indicate if the recorded pIC50 for CCCC[C@@H]1NC(=O)[C@H](Cc2cccc(I)c2)NC(=O)CN(C)C(=O)[C@H](Cc2ccc(Cl)cc2)N(C)C(=O)CN(C)C(=O)CN(C)C(=O)[C@H]([C@@H](C)CC)NC(=O)[C@H](CC(C)C)N(C)C(=O)C[C@@H](C(=O)N2CCCCC2)N(C)C(=O)[C@H](CC(C)C)NC(=O)[C@H](Cc2ccccc2C)N(C)C1=O [Compound 696] ([NMeL]I[Sar][Sar][NMePhe(4-Cl)][Sar][Phe(3-I)][Nle][NMePhe(2-Me)]L[NMeD]-Piperidide; lactam N-11) meets or exceeds 8.
Response: NOT MET

###

target: Kras and SOS1 (biotin-tagged human Kras loaded with GDP, His-tagged human SOS1) (Homo sapiens, UniProt P01116, G12D); construct: made in house; host or cells: E. coli (stated for Kras only); assay: Protein-protein interaction inhibition between Kras and SOS1 (KrasGl2D-SOS PPI) using AlphaScreen; format: binding; conditions: AlphaScreen; biotin-tagged human Kras loaded with GDP, His-tagged human SOS1; read-out: KRAS G12D-SOS PPI IC50
Starred links: 1 amine or outer side, 2 acyl side, 3 side chain; linkers in the order of their positions; H or OH if unused. Positions of bridges follow the written chain, without caps; N, C: chain ends. Non-standard residues stand in square brackets, D forms with d. Residues, ends and D or L forms follow the SMILES beside them. *: point of attachment. hPhe(3-Cl-4-CF3) = N[C@@H](CCc1ccc(C(F)(F)F)c(Cl)c1)C(=O)O; hPhe(3-F,4-CF3) = N[C@@H](CCc1ccc(C(F)(F)F)c(F)c1)C(=O)O; NMePhe(3-CN) = CN[C@@H](Cc1cccc(C#N)c1)C(=O)O; NMePhe(4-Me) = CN[C@@H](Cc1ccc(C)cc1)C(=O)O; NMedβ3hAla = C[C@H](CC(=O)[*:2])N(C)[*:1]; NMehPhe = CN[C@@H](CCc1ccccc1)C(=O)O; NMeCha = CN[C@@H](CC1CCCCC1)C(=O)O; NMeI = CC[C@H](C)[C@H](NC)C(=O)O; NMeD = CN[C@@H](CC(=O)O)C(=O)O; NMeL = CN[C@@H](CC(C)C)C(=O)O; NMeV = CN[C@H](C(=O)O)C(C)C; d(β3hA) = C[C@@H](N)CC(=O)O; NMeA = CN[C@@H](C)C(=O)O; Piperidide = C1CCN(*)CC1; Ac5c = NC1(C(=O)O)CCCC1; Aze = O=C(O)[C@@H]1CCN1; Sar = CNCC(=O)O
Each entry below lists one item and its recorded pIC50 value.
Please express pIC50 as -log10 of the molar concentration.

Previously resolved entries follow.
CC[C@H](C)[C@@H]1NC(=O)[C@H](CC(C)C)N(C)C(=O)C[C@@H](C(=O)N2CCCCC2)N(C)C(=O)[C@H](C(C)C)N(C)C(=O)C2(CCCC2)NC(=O)[C@@H]2CCCN2C(=O)[C@H](CCc2ccc(C(F)(F)F)c(Cl)c2)NC(=O)CN(C)C(=O)[C@H](CCc2ccccc2)N(C)C(=O)CN(C)C(=O)CN(C)C1=O [Compound 1608] ([NMeL]I[Sar][Sar][NMehPhe][Sar][hPhe(3-Cl-4-CF3)]P[Ac5c][NMeV][NMeD]-Piperidide; lactam N-11): 8.24
CC[C@H](C)[C@@H]1NC(=O)[C@H](C)N(C)C(=O)C[C@@H](C(=O)N(C)C)N(C)C(=O)[C@H]([C@@H](C)CC)N(C)C(=O)C2(CCCC2)NC(=O)[C@H](Cc2cccc(C#N)c2)N(C)C(=O)[C@H](CCc2ccc(C(F)(F)F)c(Cl)c2)NC(=O)CN(C)C(=O)[C@H](Cc2ccc(C)cc2)N(C)C(=O)[C@@H]2CCN2C(=O)[C@H](C)N(C)C1=O [Compound 1981] ([NMeA]I[NMeA][Aze][NMePhe(4-Me)][Sar][hPhe(3-Cl-4-CF3)][NMePhe(3-CN)][Ac5c][NMeI][NMeD]-NMe2; lactam N-11): 8.29
CC[C@H](C)[C@@H]1NC(=O)[C@H](CC(C)C)N(C)C(=O)C[C@@H](C(=O)N(C)C)N(C)C(=O)[C@H]([C@@H](C)CC)N(C)C(=O)C2(CCCC2)NC(=O)[C@H](C)NC(=O)[C@H](CCc2ccc(C(F)(F)F)c(Cl)c2)NC(=O)CN(C)C(=O)[C@H](Cc2ccc(C)cc2)N(C)C(=O)[C@@H]2CCN2C(=O)[C@H](C)N(C)C1=O [Compound 957] ([NMeL]I[NMeA][Aze][NMePhe(4-Me)][Sar][hPhe(3-Cl-4-CF3)]A[Ac5c][NMeI][NMeD]-NMe2; lactam N-11): 9.36
CC[C@H](C)[C@@H]1NC(=O)[C@H](CC(C)C)N(C)C(=O)C[C@@H](C)N(C)C(=O)[C@H](C(C)C)N(C)C(=O)C2(CCCC2)NC(=O)[C@@H]2CCCN2C(=O)[C@H](CCc2ccc(C(F)(F)F)c(Cl)c2)NC(=O)CN(C)C(=O)[C@H](Cc2ccc(C)cc2)N(C)C(=O)CN(C)C(=O)CN(C)C1=O [Compound 1549] (cyclo([Ac5c][NMeV][NMedβ3hAla][NMeL]I[Sar][Sar][NMePhe(4-Me)][Sar][hPhe(3-Cl-4-CF3)]P)): 8.44

Query: Quick one: give measured pIC50 for CC[C@H](C)[C@@H]1NC(=O)[C@H](CC(C)C)N(C)C(=O)C[C@@H](C)NC(=O)[C@H](C(C)C)N(C)C(=O)C2(CCCC2)NC(=O)[C@@H]2CCCN2C(=O)[C@H](CCc2ccc(C(F)(F)F)c(F)c2)NC(=O)CN(C)C(=O)[C@H](CC2CCCCC2)N(C)C(=O)[C@@H]2CCN2C(=O)CN(C)C1=O [Compound 211] (cyclo([Ac5c][NMeV][d(β3hA)][NMeL]I[Sar][Aze][NMeCha][Sar][hPhe(3-F,4-CF3)]P))
Response: 7.37

###

molecular target: Kras and SOS1 (biotin-tagged human Kras loaded with GDP, His-tagged human SOS1) (Homo sapiens, UniProt P01116, G12D); construct: made in house; host or cells: E. coli (stated for Kras only); test: Protein-protein interaction inhibition between Kras and SOS1 (KrasGl2D-SOS PPI) using AlphaScreen; type: binding; conditions: AlphaScreen; biotin-tagged human Kras loaded with GDP, His-tagged human SOS1; read-out: KRAS G12D-SOS PPI IC50
Starred links: 1 amine or outer side, 2 acyl side, 3 side chain; linkers in the order of their positions; H or OH if unused. Positions of bridges follow the written chain, without caps; N, C: chain ends. Non-standard residues stand in square brackets, D forms with d. Residues, ends and D or L forms follow the SMILES beside them. *: point of attachment. hPhe(3-Cl-4-CF3) = N[C@@H](CCc1ccc(C(F)(F)F)c(Cl)c1)C(=O)O; NMePhe(4-Cl) = CN[C@@H](Cc1ccc(Cl)cc1)C(=O)O; X4 = O=C([C@H](Cc1cc(F)cc(Cl)c1)N[*:1])[*:2]; NMePhe(4-Me) = CN[C@@H](Cc1ccc(C)cc1)C(=O)O; NMePhe(2-Cl) = CN[C@@H](Cc1ccccc1Cl)C(=O)O; NMeCha = CN[C@@H](CC1CCCCC1)C(=O)O; NMeChg = CN[C@H](C(=O)O)C1CCCCC1; NMeF = CN[C@@H](Cc1ccccc1)C(=O)O; NMeI = CC[C@H](C)[C@H](NC)C(=O)O; NMeD = CN[C@@H](CC(=O)O)C(=O)O; NMeL = CN[C@@H](CC(C)C)C(=O)O; NMeV = CN[C@H](C(=O)O)C(C)C; NMeA = CN[C@@H](C)C(=O)O; Piperidide = C1CCN(*)CC1; Pyrrolidide = C1CCN(*)C1; Ac5c = NC1(C(=O)O)CCCC1; Aze = O=C(O)[C@@H]1CCN1; Sar = CNCC(=O)O
value_kind: IC50 (nM)
Field: numeric (nM). Do not append units.

Previously resolved entries follow.
CC(C)C[C@@H]1NC(=O)[C@H](CC(C)C)N(C)C(=O)C[C@@H](C(=O)N2CCCCC2)N(C)C(=O)[C@H](C2CCCCC2)N(C)C(=O)C2(CCCC2)NC(=O)[C@@H]2CCCN2C(=O)[C@H](CCc2ccc(C(F)(F)F)c(Cl)c2)NC(=O)CN(C)C(=O)[C@H](CC2CCCCC2)N(C)C(=O)CN(C)C(=O)CN(C)C1=O [Compound 1650] ([NMeL]L[Sar][Sar][NMeCha][Sar][hPhe(3-Cl-4-CF3)]P[Ac5c][NMeChg][NMeD]-Piperidide; lactam N-11): 2.6
CC[C@H](C)[C@@H]1NC(=O)[C@H](CC(C)C)N(C)C(=O)C[C@@H](C(=O)N(C)C)N(C)C(=O)[C@H]([C@@H](C)CC)N(C)C(=O)C2(CCCC2)NC(=O)[C@H](Cc2ccccc2Cl)N(C)C(=O)[C@H](CCc2ccc(C(F)(F)F)c(Cl)c2)NC(=O)CN(C)C(=O)[C@H](Cc2ccc(C)cc2)N(C)C(=O)[C@@H]2CCN2C(=O)[C@H](C)N(C)C1=O [Compound 216] ([NMeL]I[NMeA][Aze][NMePhe(4-Me)][Sar][hPhe(3-Cl-4-CF3)][NMePhe(2-Cl)][Ac5c][NMeI][NMeD]-NMe2; lactam N-11): 8
CC[C@H](C)[C@@H]1NC(=O)[C@H](C)N(C)C(=O)C[C@@H](C(=O)N2CCCC2)NC(=O)[C@H](CC(C)C)N(C)C(=O)[C@H](Cc2ccccc2)N(C)C(=O)[C@H](CC(C)C)NC(=O)[C@H](Cc2cc(F)cc(Cl)c2)NC(=O)CN(C)C(=O)[C@H](Cc2ccc(Cl)cc2)N(C)C(=O)CN(C)C(=O)CN(C)C1=O [Compound 657] ([NMeA]I[Sar][Sar][NMePhe(4-Cl)][Sar][X4]L[NMeF][NMeL]D-Pyrrolidide; lactam N-11): 310
CC[C@H](C)[C@@H]1NC(=O)[C@H](CC(C)C)N(C)C(=O)C[C@@H](C(=O)N2CCCC2)N(C)C(=O)[C@H](C(C)C)N(C)C(=O)C2(CCCC2)NC(=O)[C@@H]2CCCN2C(=O)[C@H](CCc2ccc(C(F)(F)F)c(Cl)c2)NC(=O)CN(C)C(=O)[C@H](Cc2ccc(C)cc2)N(C)C(=O)CN(C)C(=O)CN(C)C1=O [Compound 1749] ([NMeL]I[Sar][Sar][NMePhe(4-Me)][Sar][hPhe(3-Cl-4-CF3)]P[Ac5c][NMeV][NMeD]-Pyrrolidide; lactam N-11): 0.74

Now consider a different molecule.
Query: Quick one: give measured IC50 for CC[C@H](C)[C@@H]1NC(=O)[C@H](CC(C)C)N(C)C(=O)C[C@@H](C(=O)N2CCCCC2)N(C)C(=O)[C@H](C(C)C)N(C)C(=O)C2(CCCC2)NC(=O)[C@@H]2CCCN2C(=O)[C@H](CCc2ccc(C(F)(F)F)c(Cl)c2)NC(=O)CN(C)C(=O)[C@H]([C@@H](C)CC)N(C)C(=O)[C@@H]2CCN2C(=O)[C@H](C)N(C)C1=O [Compound 1684] ([NMeL]I[NMeA][Aze][NMeI][Sar][hPhe(3-Cl-4-CF3)]P[Ac5c][NMeV][NMeD]-Piperidide; lactam N-11)
Response: 4.3
